SYSTEM_NAME: mono-SUMO2 (UniProt P61956 12-93)
Sequence (P61956 12-93): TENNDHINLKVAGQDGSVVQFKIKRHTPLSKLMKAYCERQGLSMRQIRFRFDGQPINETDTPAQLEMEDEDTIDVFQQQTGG
METHOD_NOTES: ITC
pKd: −log10 of the molar value.
OBSERVATION_TYPE: pKd

| BINDER | OBSERVATION_TYPE | READING |
| --- | --- | --- |
| EAEPIELVETAGDEIVDLTCESL (exact peptide ends are only in Figure 2A; limits taken as SIM1 and SIM2 (IELV, VDLT) plus short flanks; end groups unknown) [RNF4-SIM1/2 peptide] | pKd | 3.92 |

P. LEPVVVDLTHNDSVVIVDERR (exact peptide ends are only in Figure 2A; limits taken as SIM3 and SIM4 (VDLT, VVIV) plus short flanks; end groups unknown) [RNF4-SIM3/4 peptide]
Q. GDEIVDLTCESLEPVVVDLTHND (exact peptide ends are only in Figure 2A; limits taken as SIM2 and SIM3 (VDLT, VDLT) plus short flanks; end groups unknown) [RNF4-SIM2/3 peptide]
Ask: Which has the smaller recorded pKd, P or Q ? Field: selected label. Fill in the label of the entry you choose.
Result: Q
